target: human GLP-1 receptor (Homo sapiens (Human), UniProt P43220); details: read-out: Mean EC50; cAMP, HTRF detection, 30 min at 37° C., HEK-293 cells expressing cloned human GLP-1 receptor
Sequence (P43220 24-463): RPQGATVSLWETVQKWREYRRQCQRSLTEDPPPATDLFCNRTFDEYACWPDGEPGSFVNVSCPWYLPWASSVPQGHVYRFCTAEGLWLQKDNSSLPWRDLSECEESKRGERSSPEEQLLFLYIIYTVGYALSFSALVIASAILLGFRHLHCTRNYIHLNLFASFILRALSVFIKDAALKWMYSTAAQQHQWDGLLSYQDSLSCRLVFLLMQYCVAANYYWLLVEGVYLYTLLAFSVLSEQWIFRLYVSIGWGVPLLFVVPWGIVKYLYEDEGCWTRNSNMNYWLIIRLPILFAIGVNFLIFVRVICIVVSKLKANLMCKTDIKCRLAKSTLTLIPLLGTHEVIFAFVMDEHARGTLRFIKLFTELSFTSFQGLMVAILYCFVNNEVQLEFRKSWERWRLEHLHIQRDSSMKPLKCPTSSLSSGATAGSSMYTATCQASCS
For each entry below, report its EC50 value.
Write the value in nM as a bare number.

Determine its reported EC50: CCNc1nc(S(=O)(=O)N2Cc3cc4c(cc3C[C@H]2C(=O)N[C@@H](Cc2ccc(-c3ccc(C#N)cc3)cc2)C(=O)O)OCC(c2ccc(OCc3ccc(Cl)c(Cl)c3)cc2)O4)c(C)s1 (stereo in doubt)
185

Give a short answer stating reported EC50 for "Cc1nccc(-c2ccc(C[C@H](NC(=O)[C@@H]3Cc4cc5c(cc4CN3C(=O)C(C)C)O[C@@H](c3ccc(OCc4ccc(Cl)c(Cl)c4)cc3)CO5)C(=O)O)cc2)c1C" .
327

Please list EC50 recorded for the compound "CC[C@@H](c1ccccc1)N1Cc2cc3c(cc2C[C@H]1C(=O)N[C@@H](Cc1ccc(-c2ccnn2C)cc1)C(=O)O)OC[C@H](c1ccc(OCc2ccc(Cl)c(Cl)c2)cc1)O3"
66

Give EC50 for "Cc1cccc(NC(=O)N2Cc3cc4c(cc3C[C@H]2C(=O)N[C@@H](Cc2ccc(-c3ccnc(C)c3C)cc2)C(=O)O)OC[C@H](c2ccc(OCc3ccc(Cl)c(Cl)c3)cc2)O4)c1"
85

Please report EC50 for the following compound: "Cc1nc(C(=O)N2Cc3cc4c(cc3C[C@H]2C(=O)N[C@@H](Cc2ccc(-c3ccnc(C)c3C)cc2)C(=O)O)OC[C@H](c2ccc(OCCc3ccccc3)cc2)O4)c(C)o1"
49

###

biological target: human GLP-1 receptor (Homo sapiens (Human)); conditions: read-out: Mean EC50; cAMP, HTRF detection, 30 min at 37° C., HEK-293 cells expressing cloned human GLP-1 receptor
Field: EC50. Provide a value for each of the molecules that follow.
Answer format: numeric, nM implied, no suffix.

Report measured EC50; entry is "Cc1nccc(-c2ccc(C[C@H](NC(=O)[C@@H]3Cc4cc5c(cc4CN3C(=O)c3ccccn3)O[C@@H](c3ccc(OCc4ccc(Cl)c(Cl)c4)cc3)CO5)C(=O)O)cc2)c1C"
56

// fetch EC50 given entry "CC[C@@H](c1ccccc1)N1Cc2cc3c(cc2C[C@H]1C(=O)N[C@@H](Cc1ccc(-c2ccnc(N)c2)cc1)C(=O)O)OC[C@H](c1ccc(OCc2ccc(Cl)c(Cl)c2)cc1)O3"
72

Give the reported EC50 for this molecule. "Cc1nccc(-c2ccc(C[C@H](NC(=O)[C@@H]3Cc4cc5c(cc4CN3C(=O)c3ccccc3)O[C@@H](c3ccc(OCC4CCCCC4)cc3)CO5)C(=O)O)cc2)c1C"
208

###

target: human GLP-1 receptor (Homo sapiens (Human), UniProt P43220); conditions: read-out: Mean EC50; cAMP, HTRF detection, 30 min at 37° C., HEK-293 cells expressing cloned human GLP-1 receptor
Assignment: determine reported EC50 for the given molecules.
Give your result in nM as a bare value.

Query EC50 for "Cc1nccc(-c2ccc(C[C@H](NC(=O)[C@@H]3Cc4cc5c(cc4CN3C(=O)N[C@H](C)c3ccccc3)O[C@@H](c3ccc(O[C@H]4CC[C@H](C(C)(C)C)CC4)cc3)CO5)C(=O)O)cc2)c1C"
191

Provide only the value of recorded EC50 for "Cc1nccc(-c2ccc(C[C@H](NC(=O)[C@@H]3Cc4cc5c(cc4CN3C(=O)NC3CCCC3)O[C@@H](c3ccc(OCc4ccc(Cl)c(Cl)c4)cc3)CO5)C(=O)O)cc2)c1C"
187

Answer with the recorded EC50 of "Cc1nc(C(=O)N2Cc3cc4c(cc3C[C@H]2C(=O)N[C@@H](Cc2ccc(-c3ccnc(C)c3C)cc2)C(=O)O)OC[C@H](c2ccc(OCc3cc(F)cc(F)c3)cc2)O4)c(C)o1" only.
19

Quote EC50 reported for CCC(=O)Nc1nc(C)c(S(=O)(=O)N2Cc3cc4c(cc3C[C@H]2C(=O)N[C@@H](Cc2ccc(-c3ccc(C#N)cc3)cc2)C(=O)O)OCC(c2ccc(OCc3ccc(Cl)c(Cl)c3)cc2)O4)s1 (stereo partly shown) please.
214

Supply measured EC50 of "CC[C@@H](c1ccccc1)N1Cc2cc3c(cc2C[C@H]1C(=O)N[C@@H](Cc1ccc(-c2ccnc(C)c2C)cc1)C(=O)O)OC[C@H](c1cccc(OCc2ccc(Cl)c(Cl)c2)c1)O3" in your reply.
90

Please report the measured EC50 for "Cc1nccc(-c2ccc(C[C@H](NC(=O)[C@@H]3Cc4cc5c(cc4CN3C(=O)N[C@H](C)c3ccc(F)cc3)O[C@@H](c3ccc(OCc4ccc(Cl)c(Cl)c4)cc3)CO5)C(=O)O)cc2)c1C"
175

Report measured EC50; entry is "Cc1nc(C(=O)N2Cc3cc4c(cc3C[C@H]2C(=O)N[C@@H](Cc2ccc(-c3ccnc(C)c3C)cc2)C(=O)O)OC[C@H](c2ccc(OCC3(c5ccc(Cl)cc5)CC3)cc2)O4)c(C)o1"
282

Tell me measured EC50 for "Cc1nccc(-c2ccc(C[C@H](NC(=O)[C@@H]3Cc4cc5c(cc4CN3C(=O)c3ccn(C)n3)O[C@@H](c3ccc(OCc4ccc(Cl)c(Cl)c4)cc3)CO5)C(=O)O)cc2)c1C" please.
126

Please supply the value of reported EC50 for the item "CC[C@@H](c1ccccc1)N1Cc2cc3c(cc2C[C@H]1C(=O)N[C@@H](Cc1ccc(-c2ccncc2)cc1)C(=O)O)OC[C@H](c1ccc(OCc2ccc(Cl)c(Cl)c2)cc1)O3"
76

Please look at this molecule and report its EC50: "Cc1nccc(Oc2ccc(C[C@H](NC(=O)[C@@H]3Cc4cc5c(cc4CN3C(=O)NC(C)C)O[C@@H](c3ccc(OCc4ccc(Cl)c(Cl)c4)cc3)CO5)C(=O)O)cc2)c1C"
204

###

biological target: human GLP-1 receptor (Homo sapiens (Human)); conditions: read-out: Mean EC50; cAMP, HTRF detection, 30 min at 37° C., HEK-293 cells expressing cloned human GLP-1 receptor
pEC50: −log10 of the molar value.
Classification field: enter Fulfilled for pEC50 values not below 7, Not fulfilled for values below it.

Answer whether pEC50 of "CC[C@@H](c1ccccc1)N1Cc2cc3c(cc2C[C@H]1C(=O)N[C@@H](Cc1ccc(-c2ccnnc2)cc1)C(=O)O)OC[C@H](c1ccc(OCc2ccc(Cl)c(Cl)c2)cc1)O3" is greater than or equal to 7.
Not fulfilled

Evaluate Cc1nccc(-c2ccc(C[C@H](NC(=O)[C@@H]3Cc4cc5c(cc4CN3C(=O)C3CNC(=O)N3)O[C@@H](c3ccc(OCc4ccc(Cl)c(Cl)c4)cc3)CO5)C(=O)O)cc2)c1C (stereo partly shown) : pEC50 at minimum 7?
Not fulfilled

Kindly determine if pEC50 recorded for CC(=O)Nc1nc(-c2ccc(S(=O)(=O)N3Cc4cc5c(cc4C[C@H]3C(=O)N[C@@H](Cc3ccc(-c4ccc(C#N)cc4)cc3)C(=O)O)OCC(c3ccc(OCc4ccc(Cl)c(Cl)c4)cc3)O5)cc2)cs1 (stereo in doubt) is above or exactly 7.
Not fulfilled

Could you please find out whether "Cc1nc(C(=O)N2Cc3cc4c(cc3C[C@H]2C(=O)N[C@@H](Cc2ccc(-c3ccnc(C)c3C)cc2)C(=O)O)OC[C@H](c2ccc(OCC3CCCCC3)cc2)O4)c(C)o1" has pEC50 that meets 7 or exceeds it?
Not fulfilled

Kindly determine if pEC50 recorded for "Cc1nccc(-c2ccc(C[C@H](NC(=O)[C@@H]3Cc4cc5c(cc4CN3C(=O)NC3(C)CCCCC3)O[C@@H](c3ccc(OCc4ccc(Cl)c(Cl)c4)cc3)CO5)C(=O)O)cc2)c1C" is above or exactly 7.
Fulfilled

Item "CC[C@@H](c1ccccc1)N1Cc2cc3c(cc2C[C@H]1C(=O)N[C@@H](Cc1ccc(-c2ccnc(C)c2C)cc1)C(=O)O)OC[C@H](c1ccc(OCc2cccc(Cl)c2)cc1)O3" with pEC50 of 7 or above?
Fulfilled

Dear colleague, could you confirm whether "CCC(C)(C)NC(=O)N1Cc2cc3c(cc2C[C@H]1C(=O)N[C@@H](Cc1ccc(Oc2ccnc(C)c2C)cc1)C(=O)O)OC[C@H](c1ccc(OCc2ccc(Cl)c(Cl)c2)cc1)O3" has pEC50 at or above 7?
Not fulfilled

###

Assign pEC50 to each entry below.
target: human GLP-1 receptor (Homo sapiens (Human), UniProt P43220); settings: read-out: Mean EC50; cAMP, HTRF detection, 30 min at 37° C., HEK-293 cells expressing cloned human GLP-1 receptor
Kindly note that pEC50 refers to -log10 of the concentration in mol/L and answer with the value alone.

Specify pEC50 for "Cc1nc(C(=O)N2Cc3cc4c(cc3C[C@H]2C(=O)N[C@@H](Cc2ccc(-c3ccnc(C)c3C)cc2)C(=O)O)OC[C@H](c2ccc(OC[C@H]3CC[C@H](C)CC3)cc2)O4)c(C)o1" and stop.
7.12

For the compound "Cc1cc(C(=O)N2Cc3cc4c(cc3C[C@H]2C(=O)N[C@@H](Cc2ccc(-c3ccnc(C)c3C)cc2)C(=O)O)OC[C@H](c2ccc(OCc3ccc(Cl)c(Cl)c3)cc2)O4)no1" , give its reported pEC50.
6.99

Return value of pEC50 for input "CC[C@@H](c1ccccc1)N1Cc2cc3c(cc2C[C@H]1C(=O)N[C@@H](Cc1ccc(-c2ccnc(C)c2C)cc1)C(=O)O)OC[C@@H](c1ccc(OCc2ccc(Cl)c(Cl)c2)cc1)O3" , no commentary.
7.92
